Target: Beta-lactamase TEM (Escherichia coli)
Sequence (P62593 whole entry): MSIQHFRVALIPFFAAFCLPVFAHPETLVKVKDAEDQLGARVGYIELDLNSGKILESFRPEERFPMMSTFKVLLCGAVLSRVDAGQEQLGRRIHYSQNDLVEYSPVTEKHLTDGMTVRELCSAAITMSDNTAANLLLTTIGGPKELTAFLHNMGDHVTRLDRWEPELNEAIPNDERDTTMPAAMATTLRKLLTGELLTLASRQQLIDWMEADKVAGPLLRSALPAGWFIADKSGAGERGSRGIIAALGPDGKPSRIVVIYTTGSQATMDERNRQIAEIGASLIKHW
Assay: Inhibition of Beta-Lactamase Enzymes
property.name: IC50 (nM)
Just the number in nM, nothing appended.

QUERY: Given the molecule CC1=C[C@@H]2CN(C(=O)N2O[C@@H](F)C(=O)O)[C@@H]1C(=O)NOC[C@@H]1CCCN1 [US10800778, Example 62] , what is its reported IC50?
RESULT: 210
